Each entry below carries its reported melting point.
Structures can show the parent of a compound that is named as a salt.
endpoint label: melting point

1. c1cc(-c2ccc(C34CCCN(CCC3)C4)cn2)c[nH]1 = 152 to 154 °C
2. CC(=O)c1cccc(-c2ccc(C34CCCN(CCC3)C4)cn2)c1 (as salt: HBr) = 284 to 285 °C
3. c1csc(-c2ccc(C34CCN(CC3)C4)cn2)n1 = 127 to 129 °C
4. FC(F)(F)Oc1ccc(-c2ccc(C34CCN(CC3)C4)cn2)cc1 = 75 to 76 °C
5. c1cnc2c(-c3ccc(C45CCN(CC4)C5)cn3)cccc2c1 = 176 to 178 °C
6. Fc1ccc(-c2ccc(C34CCCN(CCC3)C4)cn2)cn1 = 121 to 122 °C
7. COc1ccncc1-c1ccc(C23CCCN(CCC2)C3)cn1 = 134 to 136 °C
8. COc1ncc(-c2ccc(C34CCCN(CCC3)C4)cn2)c(OC)n1 = 81 to 83 °C
9. c1ccc2c(-c3ccc(C45CCCN(CCC4)C5)cn3)cccc2c1 = 167 to 169 °C
10. c1cc(-c2ccc(C34CCCN(CCC3)C4)cn2)c2cccnc2c1 = 147 to 149 °C
11. Fc1ccc(-c2ccc(C34CCCN(CCC3)C4)cn2)cc1 = 107 to 109 °C

* * *

Measured melting point of individual entries
Counter-ions that a name gives are not always drawn.
endpoint label: melting point

1) c1cc2c(cc1-c1ccc(C34CCCN(CCC3)C4)cn1)OCO2 = 124 to 126 °C
2) c1ccc(-c2ccc(-c3ccc(C45CCN(CC4)C5)cn3)cc2)cc1 = 191 to 192 °C
3) COc1ccncc1-c1ccc(C23CCN(CC2)C3)cn1 = 97 to 99 °C
4) c1cc(-c2ccc(C34CCN(CC3)C4)cn2)ccn1 = 254 to 256 °C
5) FC(F)(F)Oc1cccc(-c2ccc(C34CCN(CC3)C4)cn2)c1 (as salt: HCl) = 152 to 154 °C
6) c1ccc2c(c1)sc1ccc(-c3ccc(C45CCCN(CCC4)C5)cn3)cc12 (as salt: HCl) = 242 to 244 °C
7) COc1ccc(-c2ccc(C34CCN(CC3)C4)cn2)cc1F = 125 to 126 °C
8) Fc1ccc(-c2ccc(C34CCN(CC3)C4)cn2)cn1 = 108 to 109 °C
9) c1cncc(-c2ccc(C34CCCN(CCC3)C4)cn2)c1 = 118 to 120 °C
10) c1ccc2c(-c3ccc(C45CCCN(CCC4)C5)cn3)cncc2c1 (as salt: HBr) = 332 to 334 °C
11) c1cc(-c2ccc(C34CCN(CC3)C4)cn2)c2ccncc2c1 = 176 to 178 °C
12) COc1cc(F)cc(-c2ccc(C34CCN(CC3)C4)cn2)c1 = 95 to 97 °C

* * *

endpoint label: melting point

1. Cn1cccc1-c1ccc(C23CCCN(CCC2)C3)cn1 = 105 to 107 °C
2. COc1ccc(-c2ccc(C34CCCN(CCC3)C4)cn2)cc1 = 138 to 139 °C
3. Cc1ccc(-c2ccc(C34CCN(CC3)C4)cn2)cc1 = 134 to 136 °C
4. COc1cc(F)ccc1-c1ccc(C23CCCN(CCC2)C3)cn1 = 148 to 150 °C
5. c1nc(N2CCOCC2)ncc1-c1ccc(C23CCN(CC2)C3)cn1 = 226 to 227 °C
6. COc1cccc(-c2ccc(C34CCN(CC3)C4)cn2)c1F = 144 to 146 °C

* * *

Where a name gives a salt, the structure may show the parent alone.
Form field: melting point (one value per entry).
endpoint label: melting point

1. COc1ccc(-c2ccc(C34CCN(CC3)C4)cn2)c(OC)c1 (as salt: HBr) = 195 to 197 °C
2. COc1cccc(-c2ccc(C34CCCN(CCC3)C4)cn2)c1 (as salt: HCl) = 267 to 269 °C
3. COc1cc(F)ccc1-c1ccc(C23CCN(CC2)C3)cn1 = 169 to 170 °C
4. COc1ccc(-c2ccc(C34CCN(CC3)C4)cn2)cc1 = 160 to 162 °C
5. CC(=O)c1cccc(-c2ccc(C34CCN(CC3)C4)cn2)c1 = 95 to 98 °C
6. COc1ncc(-c2ccc(C34CCN(CC3)C4)cn2)c(OC)n1 = 104 to 106 °C

* * *

Counter-ions that a name gives are not always drawn.
Measured melting point, listed per entry for reference.
endpoint label: melting point

1. c1ccc2oc(-c3ccc(C45CCN(CC4)C5)cn3)cc2c1 = 164 to 165 °C
2. FC(F)(F)c1ccc(-c2ccc(C34CCCN(CCC3)C4)cn2)cc1 = 135 to 137 °C
3. c1ccc2ncc(-c3ccc(C45CCCN(CCC4)C5)cn3)cc2c1 = 160 to 162 °C
4. Fc1cccc(-c2ccc(C34CCCN(CCC3)C4)cn2)c1 = 102 to 104 °C
5. c1cc2nonc2cc1-c1ccc(C23CCN(CC2)C3)cn1 = 139 to 140 °C
6. COc1cccc(-c2ccc(C34CCN(CC3)C4)cn2)c1 = 87 to 89 °C
7. Fc1ncccc1-c1ccc(C23CCN(CC2)C3)cn1 = 116 to 117 °C
8. Fc1cc(-c2ccc(C34CCN(CC3)C4)cn2)ccc1-c1ccccc1 = 153 to 155 °C
9. FC(F)(F)c1cc(-c2ccc(C34CCCN(CCC3)C4)cn2)cc(C(F)(F)F)c1 (as salt: HBr) = 226 to 228 °C
10. c1ccc(-c2ccc(C34CCCN(CCC3)C4)cn2)cc1 = 103 to 105 °C
11. c1cc2c(cc1-c1ccc(C34CCN(CC3)C4)cn1)OCO2 = 256 to 258 °C
12. Fc1ncccc1-c1ccc(C23CCCN(CCC2)C3)cn1 = 98 to 99 °C
13. c1ccc2c(-c3ccc(C45CCN(CC4)C5)cn3)cncc2c1 = 143 to 145 °C
14. c1csc(-c2ccc(C34CCCN(CCC3)C4)cn2)n1 = 124 to 126 °C
15. c1ccc2sc(-c3ccc(C45CCCN(CCC4)C5)cn3)cc2c1 = 176 to 178 °C
16. c1ccc2c(c1)oc1c(-c3ccc(C45CCN(CC4)C5)cn3)cccc12 = 158 to 160 °C
17. c1cnc2ccc(-c3ccc(C45CCCN(CCC4)C5)cn3)cc2c1 = 151 to 153 °C
18. COc1ccc(-c2ccc(C34CCCN(CCC3)C4)cn2)c(OC)c1 (as salt: HBr) = 198 to 200 °C
19. COc1ccc(-c2ccc(C34CCCN(CCC3)C4)cn2)cc1F = 138 to 140 °C
20. FC(F)(F)c1cc(-c2ccc(C34CCN(CC3)C4)cn2)cc(C(F)(F)F)c1 = 117 to 119 °C
21. c1nc(N2CCOCC2)ncc1-c1ccc(C23CCCN(CCC2)C3)cn1 = 189 to 191 °C
22. COc1ccc(OC)c(-c2ccc(C34CCN(CC3)C4)cn2)c1 (as salt: HBr) = 152 to 154 °C

* * *

Where a name gives a salt, the structure may show the parent alone.
melting point overview
endpoint label: melting point

1) c1cc2nonc2cc1-c1ccc(C23CCCN(CCC2)C3)cn1 = 151 to 153 °C
2) Fc1cccc(-c2ccc(C34CCN(CC3)C4)cn2)c1 = 88 to 90 °C
3) Cn1ccc2cc(-c3ccc(C45CCCN(CCC4)C5)cn3)ccc21 = 166 to 168 °C
4) c1ccc(Oc2ccc(-c3ccc(C45CCN(CC4)C5)cn3)cc2)cc1 = 141 to 143 °C
5) Fc1ccc(-c2ccc(C34CCN(CC3)C4)cn2)cc1F = 85 to 87 °C
6) FC(F)(F)c1ccccc1-c1ccc(C23CCN(CC2)C3)cn1 (as salt: HBr) = 310 to 312 °C
7) c1cc(-c2ccc(C34CCN(CC3)C4)cn2)co1 = 279 to 281 °C
8) c1cc(-c2ccc(C34CCCN(CCC3)C4)cn2)cc(-n2cccn2)c1 = 135 to 137 °C
9) c1cc(-c2ccc(C34CCN(CC3)C4)cn2)c[nH]1 (as salt: HCl) = 324 to 326 °C
10) FC(F)(F)c1cccc(-c2ccc(C34CCCN(CCC3)C4)cn2)c1 (as salt: HBr) = 155 to 157 °C
11) c1ccc2c(c1)oc1c(-c3ccc(C45CCCN(CCC4)C5)cn3)cccc12 = 142 to 144 °C
12) Fc1ccccc1-c1ccc(C23CCN(CC2)C3)cn1 = 110 to 112 °C
13) c1ccc2sc(-c3ccc(C45CCN(CC4)C5)cn3)cc2c1 = 202 to 203 °C
14) c1cc(-c2ccc(C34CCN(CC3)C4)cn2)cc(-n2cccn2)c1 = 114 to 116 °C
15) c1ccc2c(c1)nnn2-c1ccc(C23CCCN(CCC2)C3)cn1 (as salt: HCl) = 258 to 260 °C
16) c1ccc2ncc(-c3ccc(C45CCN(CC4)C5)cn3)cc2c1 = 267 to 268 °C
17) Cn1cccc1-c1ccc(C23CCN(CC2)C3)cn1 (as salt: HCl) = 248 to 250 °C
18) c1cncc(-c2ccc(C34CCN(CC3)C4)cn2)c1 = 228 to 229 °C
19) CC(C)(C)OC(=O)N1CCN(c2ccc(-c3ccc(C45CCCN(CCC4)C5)cn3)cn2)CC1 = 202 to 204 °C
20) c1cnc2ccc(-c3ccc(C45CCN(CC4)C5)cn3)cc2c1 (as salt: HCl) = 327 to 328 °C
21) COc1ccc(OC)c(-c2ccc(C34CCCN(CCC3)C4)cn2)c1 = 101 to 103 °C
22) CC(C)(C)OC(=O)N1CCN(c2ccc(-c3ccc(C45CCN(CC4)C5)cn3)cn2)CC1 = 216 to 218 °C
23) c1ncc(-c2ccc(C34CCN(CC3)C4)cn2)cn1 = 244 to 246 °C
24) c1ccc(Oc2ccc(-c3ccc(C45CCCN(CCC4)C5)cn3)cc2)cc1 = 129 to 131 °C
25) Fc1cc(-c2ccc(C34CCCN(CCC3)C4)cn2)ccc1-c1ccccc1 = 144 °C
26) COc1ccccc1-c1ccc(C23CCCN(CCC2)C3)cn1 (as salt: HBr) = 239 to 241 °C
27) c1cc(-c2ccc(C34CCCN(CCC3)C4)cn2)c2ccncc2c1 (as salt: HBr) = 246 to 248 °C
28) FC(F)(F)c1cccc(-c2ccc(C34CCN(CC3)C4)cn2)c1 (as salt: HCl) = 191 to 192 °C
29) COc1cccc(-c2ccc(C34CCCN(CCC3)C4)cn2)c1F = 144 to 146 °C
30) c1cc(-c2ccc(C34CCN(CC3)C4)cn2)c2cccnc2c1 = 129 to 131 °C
31) FC(F)(F)Oc1ccc(-c2ccc(C34CCCN(CCC3)C4)cn2)cc1 = 120 to 122 °C
32) c1cc(-c2ccc(C34CCCN(CCC3)C4)cn2)co1 = 335 to 337 °C
33) COc1ccccc1-c1ccc(C23CCN(CC2)C3)cn1 (as salt: HBr) = 114 to 116 °C
34) FC(F)(F)Oc1cccc(-c2ccc(C34CCCN(CCC3)C4)cn2)c1 (as salt: HBr) = 267 to 269 °C
35) c1ccc2cc(-c3ccc(C45CCN(CC4)C5)cn3)ccc2c1 = 154 to 156 °C
36) c1ccc(-c2ccc(C34CCN(CC3)C4)cn2)cc1 = 126 to 128 °C
37) c1ccc(-c2ccc(-c3ccc(C45CCCN(CCC4)C5)cn3)cc2)cc1 = 146 to 148 °C
38) c1ncc(-c2ccc(C34CCCN(CCC3)C4)cn2)cn1 = 139 to 141 °C
39) c1ccc2oc(-c3ccc(C45CCCN(CCC4)C5)cn3)cc2c1 = 152 to 154 °C
40) Fc1ccccc1-c1ccc(C23CCCN(CCC2)C3)cn1 = 117 to 119 °C
41) c1cc(N2CCCC2)ncc1-c1ccc(C23CCCN(CCC2)C3)cn1 = 301 to 303 °C
42) c1ccc2cc(-c3ccc(C45CCCN(CCC4)C5)cn3)ccc2c1 = 163 to 165 °C
43) COc1ccc(-c2ccc(C34CCN(CC3)C4)cn2)cc1OC (as salt: HCl) = 247 to 249 °C

// data source = patent US8759343B2
